test: Cytotoxicity against mouse SMA cells assessed as growth inhibition measured after 72 hrs by MTT assay
Flag rule - GI50 less than 20 µM flags y; the remaining entries get n.

Solved cases below.
COc1ccc(CNC(=O)/C(C#N)=C/c2ccc(C)o2)cc1 :: n
COc1ccc(CNC(=O)/C(C#N)=C/c2ccc(Cl)o2)cc1 :: y
N#C/C(=C\c1c(F)c(F)c(F)c(F)c1F)C(=O)c1ccc[nH]1 :: n
N#C/C(=C\c1ccc(Cl)cc1)C(=O)NCc1ccc(Cl)c(Cl)c1 :: n
N#C/C(=C\c1ccco1)C(=O)NCc1ccc(Cl)c(Cl)c1 :: n

[Q] Here's an entry: COc1ccc(CNC(=O)/C(C#N)=C/c2ccc(Cl)cc2)cc1 . Is its GI50 below 20 µM?
[A] y

[Q] Here's an entry: COc1ccc(CNC(=O)/C(C#N)=C/c2cc(Br)co2)cc1 . Is its GI50 below 20 µM?
[A] n

[Q] Here's an entry: N#C/C(=C\c1ccc2ccccc2c1)C(=O)NCc1ccc(Cl)c(Cl)c1 . Is its GI50 below 20 µM?
[A] n

[Q] Here's an entry: COc1ccc(CNC(=O)/C(C#N)=C/c2ccc3ccccc3c2)cc1 . Is its GI50 below 20 µM?
[A] n

[Q] Here's an entry: COc1ccc(CNC(=O)/C(C#N)=C/c2ccccc2)cc1 . Is its GI50 below 20 µM?
[A] y

[Q] Here's an entry: COc1ccc(CNC(=O)/C(C#N)=C/c2ccc(Br)o2)cc1 . Is its GI50 below 20 µM?
[A] y

[Q] Here's an entry: N#C/C(=C\c1cccc2ccccc12)C(=O)NCc1ccc(Cl)c(Cl)c1 . Is its GI50 below 20 µM?
[A] y

Cited source: ChEMBL document CHEMBL2331240
